Consider the following compounds; for each one, report its Cmax.
# experimental-protocol: Pharmacokinetics of XXD ingredients in diabetic rat plasma (LC-MS/MS)
# Type: in vivo
# experimental-setup: male, Sprague-Dawley, rat, po; XXD 1.25 g/kg intragastric gavage for 12 weeks, diabetic rats, plasma, mean ± SD n = 8; read-out: C max
The figure you give is taken to be in ng/mL; do not add the unit.

The compound identified as O=C(O)c1cc(O)c2c(c1)C(=O)c1cccc(O)c1C2=O registered its Cmax at 961

Memo: COc1cc2c(cc1O)CC[n+]1cc3c(OC)c(OC)ccc3cc1-2 , reported Cmax: 14

# Cmax (compound: O=C(O)[C@H]1O[C@@H](Oc2cc3oc(-c4ccccc4)cc(=O)c3c(O)c2O)[C@H](O)[C@@H](O)[C@@H]1O ) is 1560
